Data credit: patent US20190225691A1

molecular target: T1, human PD-L1 ECD-His (human, UniProt Q9NZQ7 19-238); test: SPR, 25 C, antibody captured by anti-human IgG Fc, hPD-L1_ECD-His analyte, 1:1 fit
T1 construct: extracellular domain; Analyte in all SPR and BLI runs; also called hPD-L1_ECD-His; hPD-L1 ECD-His; not shown: His tag
T1 sequence (Q9NZQ7 19-238): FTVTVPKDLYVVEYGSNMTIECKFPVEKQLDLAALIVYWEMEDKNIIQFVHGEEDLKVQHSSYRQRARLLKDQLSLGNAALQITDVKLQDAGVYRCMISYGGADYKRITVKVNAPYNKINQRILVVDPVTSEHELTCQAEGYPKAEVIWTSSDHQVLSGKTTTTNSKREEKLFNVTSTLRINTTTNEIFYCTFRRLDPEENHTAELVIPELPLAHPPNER
PARAMETER MEASURED: koff (s⁻¹)
Answer in s⁻¹, number only, no unit symbol.

IN: Please give the documented koff of PL2 (full-length, N297A mutant human IgG1) (antibody, V domains shown) VH: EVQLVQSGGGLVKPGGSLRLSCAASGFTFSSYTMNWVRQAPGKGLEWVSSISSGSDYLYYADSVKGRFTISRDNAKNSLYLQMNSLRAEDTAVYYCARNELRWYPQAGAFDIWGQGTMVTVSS VL: QSVVTQPPSMSAAPGQNVTISCSGSSSYIESSYVSWYQQLPGTAPRLLIYDDDMRPSGIPDRFSGSKSGTSATLAITGLQTGDEADYYCEIWDSGLGGVFGGGTKLTVLS
OUT: 0.0039

IN: Specify measured koff for PL1 (full-length, N297A mutant human IgG1) (antibody, V domains shown) VH: QIQLVQSGAEVKKPGSSVKVSCKASGGTFSSYAISWVRQAPGQGLEWMGRIIPILGIANYAQKFQGRVTITAGESTSTAYMELSSLRSEDTAVYYCAREGSSGWLGVLDYWGQGTLVTVSS VL: QAVLTQPSSVSGAPGQRVTISCTGSSSNVGAGYDVHWYQQLPGTAPKLLIYGNSNRPSGVPDRFSGSKSGTSASLAITGLQAEDEADYYCQSYDSSLSGWVFGGGTKLTVLG .
OUT: 0.00453

IN: Give koff for the following binder: PL8 (full-length, N297A mutant human IgG1) (antibody, V domains shown) VH: EVQLVQSGAEVKKPGSSVKVSCKASGGTFSSYAISWVRQAPGQGLEWMGRIIPIFGTANYAQKFQGRVTITADESTSTAYMELSSLRSEDTAVYYCAREGVLDAFDIWGQGTMVTVSS VL: LSSELTQDPAVSVALGQTVRITCQGDSLRSYYVSWYQQKPGQAPVLVLYGKNNRPSGIPDRFSGSSSGSTASLTITGAQAEDEADYYCNSRDSTGNLLRVFGGGTKLTVLG
OUT: 0.00348
